# system: AtALMT9 (Arabidopsis thaliana, UniProt Q9LS46)
# Sequence (Q9LS46 whole entry): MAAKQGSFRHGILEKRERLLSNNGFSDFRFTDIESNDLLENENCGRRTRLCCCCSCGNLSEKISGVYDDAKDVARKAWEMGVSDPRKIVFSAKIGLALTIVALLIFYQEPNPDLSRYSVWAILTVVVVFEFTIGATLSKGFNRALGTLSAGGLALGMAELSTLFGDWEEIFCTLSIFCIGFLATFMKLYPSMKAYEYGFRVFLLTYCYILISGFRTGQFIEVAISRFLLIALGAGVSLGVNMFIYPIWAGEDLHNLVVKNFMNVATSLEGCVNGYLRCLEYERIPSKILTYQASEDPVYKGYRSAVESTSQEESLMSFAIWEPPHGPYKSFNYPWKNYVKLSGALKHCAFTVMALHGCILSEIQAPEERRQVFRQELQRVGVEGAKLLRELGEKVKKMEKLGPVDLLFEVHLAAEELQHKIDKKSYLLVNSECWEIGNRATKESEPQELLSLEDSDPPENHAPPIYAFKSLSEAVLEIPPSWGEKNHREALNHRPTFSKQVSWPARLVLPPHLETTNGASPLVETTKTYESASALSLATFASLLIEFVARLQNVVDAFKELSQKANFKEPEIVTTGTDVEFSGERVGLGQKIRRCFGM
# assay-name: patch clamp of excised cytosolic-side-out vacuolar patches, Hill fit
pEC50: −log10 of the molar value.
assay-readout: pEC50

INSERT INTO measurements (molecule, assay_readout, meas_value) VALUES
  ('O=C(O)C[C@H](O)C(=O)O [malate]', 'pEC50', 3.52);

Entry source: paper PMC3644109
